assay protocol: Cytotoxicity against human HeLa cells assessed as reduction in cell viability measured after 72 hrs by Celltiter-Glo luminescence assay
Type: cell-based
study conditions: read-out: TC50
This section presents molecules with their documented CC50 at 72 h values.
All answers are understood in nM, so give the number only.

# annotated cases, reported CC50 at 72 h shown
c1c[nH]c(CNCc2cc(CNCc3ccc[nH]3)cc(-c3cc(CNCc4ccc[nH]4)cc(CNCc4ccc[nH]4)c3)c2)c1 :: 2430
c1coc(CNCc2cc(CNCc3ccco3)cc(-c3cc(CNCc4ccco4)cc(CNCc4ccco4)c3)c2)c1 :: 2510

Could you now consider this next molecule?
Quick one: CC50 at 72 h of "c1c[nH]c(CNCc2cc(CNCc3ccc[nH]3)cc(-c3cc(CNCc4ccc[nH]4)cc(Cn4cc(COCCOCCOCCOCc5cn(Cc6cc(CNCc7ccc[nH]7)cc(-c7cc(CNCc8ccc[nH]8)cc(CNCc8ccc[nH]8)c7)c6)nn5)nn4)c3)c2)c1" ?
2480

----------
assay protocol: Binding affinity to beta mannose in CD2Cl2 by NMR analysis
Active and inactive are the calls of the source. The rule behind the calls is not given here.
value kind: Ka

Below are worked cases with known answers.
c1c[nH]c(CNCc2cc(CNCc3ccc[nH]3)cc(-c3cc(CNCc4ccc[nH]4)cc(Cn4cc(COCCOCCOCCOCc5cn(Cc6cc(CNCc7ccc[nH]7)cc(-c7cc(CNCc8ccc[nH]8)cc(CNCc8ccc[nH]8)c7)c6)nn5)nn4)c3)c2)c1 :: 1.7 ×10³ /M
c1csc(CNCc2cc(CNCc3cccs3)cc(-c3cc(CNCc4cccs4)cc(CNCc4cccs4)c3)c2)c1 :: inactive
c1coc(CNCc2cc(CNCc3ccco3)cc(-c3cc(CNCc4ccco4)cc(CNCc4ccco4)c3)c2)c1 :: 5.4 ×10¹ /M
Cn1ccnc1CNCc1cc(CNCc2nccn2C)cc(-c2cc(CNCc3nccn3C)cc(CNCc3nccn3C)c2)c1 :: 5.9 ×10² /M
c1c[nH]c(CNCc2cc(CNCc3ccc[nH]3)cc(-c3cc(CNCc4ccc[nH]4)cc(CNCc4ccc[nH]4)c3)c2)c1 :: 3.6 ×10⁴ /M

Which measured Ka value corresponds to "C(=N\Cc1cc(C/N=C/c2cccs2)cc(-c2cc(C/N=C/c3cccs3)cc(C/N=C/c3cccs3)c2)c1)/c1cccs1" ?
inactive

Quick check: Ka of "C(=N\Cc1cc(C/N=C/c2ccco2)cc(-c2cc(C/N=C/c3ccco3)cc(C/N=C/c3ccco3)c2)c1)/c1ccco1" ?
3.7 ×10¹ /M

Look at this molecule and give its reported Ka. "C(=N\Cc1cc(C/N=C/c2ccc[nH]2)cc(-c2cc(C/N=C/c3ccc[nH]3)cc(C/N=C/c3ccc[nH]3)c2)c1)/c1ccc[nH]1"
2.4 ×10³ /M

----------
Each item that follows carries a reported CC50 at 72 h.
assay protocol: Cytotoxicity against African green monkey Vero cells assessed as reduction in cell viability measured after 72 hrs by Celltiter-Glo luminescence assay
Type: cell-based
study conditions: chlorocebus sabaeus, read-out: TC50
Report the value in µM with no unit label.

c1c[nH]c(CNCc2cc(CNCc3ccc[nH]3)cc(-c3cc(CNCc4ccc[nH]4)cc(CNCc4ccc[nH]4)c3)c2)c1 :: 34.1
c1coc(CNCc2cc(CNCc3ccco3)cc(-c3cc(CNCc4ccco4)cc(Cn4cc(COCCOCCOCCOCc5cn(Cc6cc(CNCc7ccco7)cc(-c7cc(CNCc8ccco8)cc(CNCc8ccco8)c7)c6)nn5)nn4)c3)c2)c1 :: 51.5

Please examine the following record next.
// returns reported CC50 at 72 h for input "c1c[nH]c(CNCc2cc(CNCc3ccc[nH]3)cc(-c3cc(CNCc4ccc[nH]4)cc(Cn4cc(COCCOCCOCCOCc5cn(Cc6cc(CNCc7ccc[nH]7)cc(-c7cc(CNCc8ccc[nH]8)cc(CNCc8ccc[nH]8)c7)c6)nn5)nn4)c3)c2)c1"
36.2

----------
The following compounds are shown together with reported Ka values.
assay protocol: Binding affinity to alpha mannose in CD2Cl2 by NMR analysis
Response body: numeric value in ×10³ /M, unit text excluded.

Cn1ccnc1CNCc1cc(CNCc2nccn2C)cc(-c2cc(CNCc3nccn3C)cc(CNCc3nccn3C)c2)c1 :: 4.4

So what does the record say about Ka for "c1c[nH]c(CNCc2cc(CNCc3ccc[nH]3)cc(-c3cc(CNCc4ccc[nH]4)cc(Cn4cc(COCCOCCOCCOCc5cn(Cc6cc(CNCc7ccc[nH]7)cc(-c7cc(CNCc8ccc[nH]8)cc(CNCc8ccc[nH]8)c7)c6)nn5)nn4)c3)c2)c1" ?
2.6

----------
Listed next: entries and their corresponding log10 of IC50.
Test system: Zika virus
assay protocol: Antiviral activity against Zika virus harboring subgenomic GFP replicon infected in human HeLa cells assessed as reduction in viral infection preincubated for 30 mins followed by viral infection and measured after 72 hrs
Assay type: functional, organism-based
Could you please treat all values as log10 of IC50 in nM?

Study these solved cases before continuing.
c1c[nH]c(CNCc2cc(CNCc3ccc[nH]3)cc(-c3cc(CNCc4ccc[nH]4)cc(CNCc4ccc[nH]4)c3)c2)c1 :: 2.65
c1c[nH]c(CNCc2cc(CNCc3ccc[nH]3)cc(-c3cc(CNCc4ccc[nH]4)cc(Cn4cc(COCCOCCOCCOCc5cn(Cc6cc(CNCc7ccc[nH]7)cc(-c7cc(CNCc8ccc[nH]8)cc(CNCc8ccc[nH]8)c7)c6)nn5)nn4)c3)c2)c1 :: 2.38
C(=N\Cc1cc(C/N=C/c2ccc[nH]2)cc(-c2cc(C/N=C/c3ccc[nH]3)cc(C/N=C/c3ccc[nH]3)c2)c1)/c1ccc[nH]1 :: 3.49

Give its log10 of IC50 value. Item: "c1coc(CNCc2cc(CNCc3ccco3)cc(-c3cc(CNCc4ccco4)cc(CNCc4ccco4)c3)c2)c1"
2.54

For the compound shown here, "c1csc(CNCc2cc(CNCc3cccs3)cc(-c3cc(CNCc4cccs4)cc(CNCc4cccs4)c3)c2)c1" , give the reported log10 of IC50.
2.75

# lookup: log10 of IC50 of "c1coc(CNCc2cc(CNCc3ccco3)cc(-c3cc(CNCc4ccco4)cc(Cn4cc(COCCOCCOCCOCc5cn(Cc6cc(CNCc7ccco7)cc(-c7cc(CNCc8ccco8)cc(CNCc8ccco8)c7)c6)nn5)nn4)c3)c2)c1"
3.14

----------
assay protocol: Cytotoxicity against African green monkey Vero cells assessed as reduction in cell viability measured after 72 hrs by Celltiter-Glo luminescence assay
Type: cell-based
study conditions: chlorocebus sabaeus, read-out: TC50
value kind: CC50 at 72 h (µM)
Respond numerically; units are µM and should not be typed.

Item under review: "c1csc(CNCc2cc(CNCc3cccs3)cc(-c3cc(CNCc4cccs4)cc(CNCc4cccs4)c3)c2)c1" . Reported CC50 at 72 h?
4.12

Could you share which CC50 at 72 h value was measured for "c1coc(CNCc2cc(CNCc3ccco3)cc(-c3cc(CNCc4ccco4)cc(CNCc4ccco4)c3)c2)c1" ?
5.43

Fill in the blank: the reported CC50 at 72 h of "C(=N\Cc1cc(C/N=C/c2ccc[nH]2)cc(-c2cc(C/N=C/c3ccc[nH]3)cc(C/N=C/c3ccc[nH]3)c2)c1)/c1ccc[nH]1" is ____.
46.1

----------
Reported Ka is given for each of the following compounds.
assay protocol: Binding affinity to alpha mannose in CD2Cl2 by NMR analysis

Worked cases, Ka given:
c1csc(CNCc2cc(CNCc3cccs3)cc(-c3cc(CNCc4cccs4)cc(CNCc4cccs4)c3)c2)c1 :: 1.4 ×10² /M
C(=N\Cc1cc(C/N=C/c2ccc[nH]2)cc(-c2cc(C/N=C/c3ccc[nH]3)cc(C/N=C/c3ccc[nH]3)c2)c1)/c1ccc[nH]1 :: 3 ×10³ /M
c1c[nH]c(CNCc2cc(CNCc3ccc[nH]3)cc(-c3cc(CNCc4ccc[nH]4)cc(CNCc4ccc[nH]4)c3)c2)c1 :: 1.4 ×10³ /M

Consider the record given below.
# lookup: Ka of "C(=N\Cc1cc(C/N=C/c2ccco2)cc(-c2cc(C/N=C/c3ccco3)cc(C/N=C/c3ccco3)c2)c1)/c1ccco1"
2 ×10² /M

----------
In this section we review reported CC50 at 72 h values for a set of compounds.
assay protocol: Cytotoxicity against human HeLa cells assessed as reduction in cell viability measured after 72 hrs by Celltiter-Glo luminescence assay
Format: cell-based
study conditions: read-out: TC50
Express the result in nM but write the number alone.

c1coc(CNCc2cc(CNCc3ccco3)cc(-c3cc(CNCc4ccco4)cc(Cn4cc(COCCOCCOCCOCc5cn(Cc6cc(CNCc7ccco7)cc(-c7cc(CNCc8ccco8)cc(CNCc8ccco8)c7)c6)nn5)nn4)c3)c2)c1 :: 2220

// returns reported CC50 at 72 h for input "C(=N\Cc1cc(C/N=C/c2ccc[nH]2)cc(-c2cc(C/N=C/c3ccc[nH]3)cc(C/N=C/c3ccc[nH]3)c2)c1)/c1ccc[nH]1"
17600

# query: CC50 at 72 h of entry "c1csc(CNCc2cc(CNCc3cccs3)cc(-c3cc(CNCc4cccs4)cc(CNCc4cccs4)c3)c2)c1"
2470
